# Tested on: purified B-lymphocytes
# Procedure Summary: MTT cytotoxicity on purified normal B-lymphocytes
# Format: cell-based, human
# Settings: 5 or 10 μg/ml, 48 hours; FIG. 5C
Test Readout: cytotoxic effect on purified normal B-lymphocytes (MTT)

- Compound Structure String: "COc1ccc2oc3cc(O)c(CC=C(C)C)c(O)c3c(=O)c2c1"
  Test Value: "no toxic effect"
- Compound Structure String: "C=CC(C)(C)c1c2c(c(O)c3c(=O)c4ccc(O)c(O)c4oc13)C=CC(C)(C)O2"
  Test Value: "somewhat sensitive"
- Compound Structure String: "CC(C)=CCc1c(O)cc2oc3c(c(=O)c2c1O)C(CC=C(C)C)(CC=C(C)C)C(=O)C(O)=C3"
  Test Value: "no toxic effect"
- Compound Structure String: "COc1c(O)cc2oc3cc(O)c(CC=C(C)C)c(O)c3c(=O)c2c1CC=C(C)C"
  Test Value: "somewhat sensitive"

====

# Tested on: ESKOL cells
# Procedure Summary: Annexin V-FITC labelling of ESKOL cells (phosphatidylserine externalisation, flow cytometry)
# Assay type: cell-based, human
# Settings: 1 μg/ml, 24 hours
Test Readout: increase in the percentage of Annexin V positive ESKOL cells (in words)

- Compound Structure String: "CC(C)=CCC/C(C)=C/Cc1c(O)c(O)cc2oc3cc(O)c(CC=C(C)C)c(O)c3c(=O)c12"
  Test Value: "to a lesser degree"
- Compound Structure String: "CC(C)=CCc1c(O)cc2oc3c(c(=O)c2c1O)C(CC=C(C)C)(CC=C(C)C)C(=O)C(O)=C3"
  Test Value: "to a lesser degree"
- Compound Structure String: "COc1c(O)cc2oc3cc(O)c(CC=C(C)C)c(O)c3c(=O)c2c1CC=C(C)C"
  Test Value: "significant increase"
- Compound Structure String: "C=CC(C)(C)c1c2c(c(O)c3c(=O)c4ccc(O)c(O)c4oc13)C=CC(C)(C)O2"
  Test Value: "significant increase"
